experiment: qHTS assay for small molecule agonists of the antioxidant response element (ARE) signaling pathway (AID 743202); conditions: HepG2 ARE-bla reporter, beta-lactamase FRET, 16 h; series mostly up to 73.3 µM
Results filed as inconclusive are left out. The source made the active and inactive calls. Calls follow the shape of the dose curve; as a rule, active = well fitted activation curve with a large enough effect in the signal ratio in the repeat runs (not every such curve was filed as active); inconclusive = weak or mixed curves, or effect the other way; inactive = no such curve, though single readings can be large or run the other way; the % refers to the signal ratio.
Labels: active, inactive

{"MOLECULE": "COc1cccc([C@@]2(O)CCCC[C@@H]2CN(C)C)c1", "CATEGORY": "inactive"}
{"MOLECULE": "CCc1ccc(C2CCNCC2)cc1", "CATEGORY": "inactive"}
{"MOLECULE": "BrCCc1ccccc1", "CATEGORY": "inactive"}
{"MOLECULE": "NNC(N)=O", "CATEGORY": "inactive"}
{"MOLECULE": "Cc1ccc2cc(C)ccc2c1", "CATEGORY": "inactive"}
{"MOLECULE": "CCOC(=O)NC(C)(C)Cc1ccc(Cl)cc1", "CATEGORY": "inactive"}
{"MOLECULE": "NC(=O)OCCCc1ccccc1", "CATEGORY": "inactive"}
{"MOLECULE": "C#CC(C)(C)O", "CATEGORY": "inactive"}
{"MOLECULE": "CCNc1nc(Cl)nc(NC(C)(C)C)n1", "CATEGORY": "inactive"}
{"MOLECULE": "COC(=O)c1ccccc1CS(=O)(=O)NC(=O)Nc1nc(OC)cc(OC)n1", "CATEGORY": "inactive"}
{"MOLECULE": "CCCCCCCC(=O)Cl", "CATEGORY": "inactive"}
{"MOLECULE": "ClCC1CO1 (stereo not given)", "CATEGORY": "inactive"}
{"MOLECULE": "C=CCc1cc(OC)c2c(c1)OCO2", "CATEGORY": "inactive"}
{"MOLECULE": "NCC1(CC(=O)O)CCCCC1", "CATEGORY": "inactive"}
{"MOLECULE": "CC(C)(O)C(Cl)(Cl)Cl", "CATEGORY": "inactive"}
{"MOLECULE": "Cc1ccc(-c2nc3ccc(C)cn3c2CC(=O)N(C)C)cc1", "CATEGORY": "inactive"}
{"MOLECULE": "NCCOS(=O)(=O)O", "CATEGORY": "inactive"}
{"MOLECULE": "Nc1c(Cl)c(F)nc(OCC(=O)O)c1Cl", "CATEGORY": "inactive"}
{"MOLECULE": "CCCC(C)(COC(N)=O)COC(N)=O", "CATEGORY": "inactive"}
{"MOLECULE": "N=C(N)[Se]", "CATEGORY": "inactive"}
{"MOLECULE": "CC(Cl)(Cl)Cl", "CATEGORY": "inactive"}
{"MOLECULE": "Oc1ccc(Cc2ccc(O)cc2)cc1", "CATEGORY": "active"}
{"MOLECULE": "CCC(C(N)=O)N1CCCC1=O (stereo not given)", "CATEGORY": "inactive"}
{"MOLECULE": "CCOC(=O)c1ncn2c1CN(C)C(=O)c1c(I)cccc1-2", "CATEGORY": "inactive"}
{"MOLECULE": "Cc1ccc(Cl)c(O)c1", "CATEGORY": "inactive"}
{"MOLECULE": "c1ccc2c(c1)CCNC2", "CATEGORY": "inactive"}
{"MOLECULE": "BrCC1CO1 (stereo not given)", "CATEGORY": "inactive"}
{"MOLECULE": "COc1ccccc1OC", "CATEGORY": "inactive"}
{"MOLECULE": "CC1NCCOC1c1ccccc1 (stereo not given)", "CATEGORY": "inactive"}
{"MOLECULE": "CN(C)C1CCCCC1", "CATEGORY": "inactive"}
{"MOLECULE": "CC(C)(C)NC[C@H](O)c1ccc(O)cc1Cl", "CATEGORY": "inactive"}
{"MOLECULE": "O=C1CC(=O)NC(=O)N1", "CATEGORY": "inactive"}
{"MOLECULE": "Cc1cccc2sc3nncn3c12", "CATEGORY": "active"}
{"MOLECULE": "CCC1(c2cccc(O)c2)CCCCN(C)C1 (stereo not given)", "CATEGORY": "inactive"}
{"MOLECULE": "CCCN1CCC[C@@H]2Cc3[nH]ncc3C[C@H]21", "CATEGORY": "inactive"}
{"MOLECULE": "Cn1c(CCCC(=O)O)nc2cc(N(CCCl)CCCl)ccc21", "CATEGORY": "inactive"}
{"MOLECULE": "O=S1(=O)OCCO1", "CATEGORY": "inactive"}
{"MOLECULE": "O=CCCl", "CATEGORY": "inactive"}
{"MOLECULE": "CC(C)[C@]12CC(=O)[C@H](C)[C@H]1C2", "CATEGORY": "inactive"}
{"MOLECULE": "O=c1[nH]c2ccccc2n1C1CCNCC1", "CATEGORY": "inactive"}
{"MOLECULE": "C[N+]1(C)CCCCC1", "CATEGORY": "inactive"}
{"MOLECULE": "CCCOc1nn(C(=O)NS(=O)(=O)c2ccccc2C(=O)OC)c(=O)n1C", "CATEGORY": "inactive"}
{"MOLECULE": "CC(=NC#N)N(C)Cc1ccc(Cl)nc1", "CATEGORY": "inactive"}
{"MOLECULE": "ClCOCCl", "CATEGORY": "inactive"}
{"MOLECULE": "CCOc1cc(OP(=S)(OC)OC)nc(CC)n1", "CATEGORY": "inactive"}
{"MOLECULE": "CC[C@H](N)c1ccccc1", "CATEGORY": "inactive"}
{"MOLECULE": "CCCOC(=O)c1cncn1C(C)c1ccccc1 (stereo not given)", "CATEGORY": "inactive"}
{"MOLECULE": "NC(=O)CS(=O)C(c1ccccc1)c1ccccc1 (stereo not given)", "CATEGORY": "inactive"}
{"MOLECULE": "O=C(Cl)OCc1ccccc1", "CATEGORY": "inactive"}
{"MOLECULE": "C=CCN1CC[C@]23CCCC[C@H]2[C@H]1Cc1ccc(O)cc13", "CATEGORY": "inactive"}
{"MOLECULE": "CCC1(CC)C(=O)C=CNC1=O", "CATEGORY": "inactive"}
{"MOLECULE": "CC(C)(C)c1cc(O)ccc1O", "CATEGORY": "active"}
{"MOLECULE": "O=[N+]([O-])c1cccc(CCl)c1", "CATEGORY": "active"}
{"MOLECULE": "CC(C)NCC(O)c1ccc([N+](=O)[O-])cc1 (stereo not given)", "CATEGORY": "inactive"}
{"MOLECULE": "O=P(O)(O)CN(CP(=O)(O)O)CP(=O)(O)O", "CATEGORY": "inactive"}
